pIC50: −log10 of the molar value.
Literature pIC50 values, system: Cholecystokinin receptor type A (Rattus norvegicus).
Cut-off 5 on pIC50, inclusive. At or above means MET; below means NOT MET.

Some solved entries appear below for comparison.
O=C1C=C(Cl)C(O)(c2ccc(Cl)cc2)N1CCc1ccccc1 (centres unmarked): MET
CC(C)C[C@H](NC(=O)[C@H]1Cc2c([nH]c3ccccc23)CN1C(=O)Nc1ccc(Cl)c(Cl)c1)C(=O)NCCC(=O)O: NOT MET
Cc1ccc(N2C(=O)C=C(Cl)C2(O)c2ccccc2)cc1C (centres unmarked): MET
Cc1cccc(NC(=O)N2c3ccccc3C[C@H]2C(=O)N2CCc3c([nH]c4ccccc34)C2)c1: NOT MET
O=C1C=C(Cl)C(O)(c2ccccc2)N1C1CCCCC1 (centres unmarked): NOT MET
O=C1C=C(Cl)C(O)(c2ccc(Cl)cc2)N1C1CCCC1 (centres unmarked): MET

Could you now look at the following compound, please?
Can NC(=O)[C@H](CC(=O)O)NC(=O)[C@H]1Cc2c([nH]c3ccccc23)CN1C(=O)c1ccccc1 be said to have pIC50 at or above 5?
NOT MET
